Target or test system: Pantothenate synthetase (Mycobacterium tuberculosis (strain ATCC 25618 / H37Rv))
Procedure summary: Coupled enzyme confirmation of inhibitors against recombinant Mtb PanC (AID 375);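 note: 0% = full reaction with vehicle and 100% = no enzyme background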
Measurement setup: coupled enzyme assay; at 10 µM, stronger effect = higher value
Readout label: inhibition (%)
Give the value, in units of %, as a plain number.

Solved cases below.
Compound	Unit descriptor	inhibition
CCOC(=O)c1sc2nc3c(cc2c1N)COC(C)(C)C3	%	12
COc1ccccc1CNC(=O)C1CCCN(S(=O)(=O)c2cccc3cccnc23)C1 (stereo unspecified)	%	1
CN(C(=O)c1ccccn1)c1nnc(-c2cccnc2)s1	%	6
O=C(c1cccc(F)c1)N1CCc2ccccc21	%	0
CC1CCCc2sc3nc(NCc4ccco4)n4ncnc4c3c21 (stereo unspecified)	%	0

Q. For the compound shown here, "c1ccc(-n2ncc3c(NC4CCCCCC4)ncnc32)cc1" , give the reported inhibition.
A. 0

Q. Follow-up entry: COc1ccc(-c2cc(C(F)F)n3ncc(C(=O)NCC4CCCO4)c3n2)cc1 (stereo unspecified)
A. 4

Q. Follow-up entry: CN(C(=O)COC(=O)C1CCN(S(=O)(=O)c2cccs2)CC1)C1CCS(=O)(=O)C1 (stereo unspecified)
A. 7

Q. Follow-up entry: "CN(C)S(=O)(=O)c1ccc(Oc2ccc(S(=O)(=O)N(C)C)cc2)cc1"
A. 4

Q. Follow-up entry: "CN(C)c1ccc(C2C3=C(CCCC3=O)OC3=C2C(=O)CCC3)cc1"
A. 0

Q. Follow-up entry: Cn1cccc1C1NC(=O)c2c(sc3c2CCC(C(C)(C)C)C3)N1 (stereo unspecified)
A. 3

###

Target or test system: Pantothenate synthetase (Mycobacterium tuberculosis (strain ATCC 25618 / H37Rv))
Procedure summary: Coupled enzyme confirmation of inhibitors against recombinant Mtb PanC (AID 375);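 note: 0% = full reaction with vehicle and 100% = no enzyme background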
Measurement setup: coupled enzyme assay; at 10 µM, stronger effect = higher value
Readout label: inhibition (%)
Give the value, in units of %, as a plain number.

Solved cases below.
Molecule	Readout label	Recorded value
CCN1CCN(C(CNC(=O)c2ccc3c(c2)OCO3)c2cccnc2)CC1 (stereo unspecified)	inhibition	0
O=c1c(O)c(-c2ccc(O)cc2O)oc2cc(O)cc(O)c12	inhibition	9
Cn1nnnc1SCC(=O)Nc1ccccc1C(=O)NCc1ccccc1	inhibition	0
CCN(CC(=O)NC1CCS(=O)(=O)C1)C(=O)C(c1ccccc1)c1ccccc1 (stereo unspecified)	inhibition	1
CCN(CC)C(=O)COC(=O)c1ccc(O)cc1	inhibition	0

Q. For the molecule shown here, Cc1ccc(CN2C(=O)CCC2C(=O)NC2CCCC2)cc1 (stereo unspecified) , give the reported inhibition.
A. 0

###

Procedure summary: viability of HCT116 without oncogenic beta-catenin – human colon tumor cells, pilot screen (AID 823);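 note: 0% = wells killed by 20 µM Hyamine and 100% = untreated DMSO cell wells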
Measurement setup: HCT116 beta-catenin knockout viability, CellTiter-Glo, 60 h; at 10 µM; stronger effect = lower value
Inconclusive results are not listed.
In this section, each of the compounds is paired with its reported viability.
Give the value, in units of %, as a plain number.

Compound	viability (%)
Cc1nc2ccccc2c(=O)n1-c1ccc(F)cc1	97.7
CN(C)c1ccc(CN2CC=C(c3ccc(F)cc3)CC2)cc1	86.6
COc1ccc2nc(NC(=O)CCc3nc(C4=CCN(C)CC4)no3)sc2c1	79.2

Q. For the compound shown here, "CN1C(=O)C(Cc2cccs2)C(=O)N(C)C1=O" , give the reported viability.
A. 100

Q. Follow-up entry: O=C(CN1CC(c2ccccc2)CC1=O)Nc1ccc(F)cc1 (stereo not given)
A. 101

Q. Follow-up entry: "COc1ccccc1N=Cc1c(O)n(C)c(=O)n(C)c1=O"
A. 87.1

###

Target or test system: Pantothenate synthetase (Mycobacterium tuberculosis (strain ATCC 25618 / H37Rv))
Procedure summary: Coupled enzyme confirmation of inhibitors against recombinant Mtb PanC (AID 375);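 note: 0% = full reaction with vehicle and 100% = no enzyme background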
Measurement setup: coupled enzyme assay; at 10 µM, stronger effect = higher value
Activity calls are given as the source filed them. No rule for the calls is given here.
In this section, each of the compounds is paired with its reported inhibition.

Solved cases below.
Compound	inhibition
COC(=O)c1sc(S(=O)(=O)N2CCN(c3ccccc3)CC2)c(C(=O)OC)c1C	10% (inactive)
COc1ccc(-c2nnc(-c3ccc(N)cc3)o2)cc1	4% (inactive)
N=c1sc2ccccc2n1-c1ccccc1	3% (inactive)
COc1ccc(N2CCC(CNS(=O)(=O)c3cccc(C(F)(F)F)c3)C2)cc1 (centres undefined)	5% (inactive)
Cc1cc(C)cc(NC(=O)N2CCC(c3nc4ccccc4o3)CC2)c1	7% (inactive)
COc1cc(NC(=O)c2cc(CC(C)C)on2)c(OC)cc1Cl	5% (inactive)

Q. For the compound shown here, "O=C1c2ccccc2CN1CCNS(=O)(=O)c1ccc(Cl)cc1" , give the reported inhibition.
A. 9% (inactive)

Q. Follow-up entry: "O=C(CN1CCCCCC1)OCCN=C1NS(=O)(=O)c2ccccc21"
A. 0% (inactive)

Q. Follow-up entry: COc1cc2c(cc1OC)C(c1cc(OC)c(OC)c(OC)c1)NCC2 (centres undefined)
A. 0% (inactive)

Q. Follow-up entry: CCCCOC(=O)c1[nH]c2c(c1C)C(=O)CC(c1cc(OC)c(OC)c(OC)c1)C2 (centres undefined)
A. 10% (inactive)

Q. Follow-up entry: "COc1ccc(CCNc2oc(-c3ccccc3OC)nc2C#N)cc1"
A. 2% (inactive)

Q. Follow-up entry: "Cc1ccc(-n2nnnc2SCC(=O)c2cc(C)n(-c3cc(C)on3)c2C)cc1"
A. 4% (inactive)

Q. Follow-up entry: COC(=O)C1=C(N)Oc2cc(C)[nH]c(=O)c2C1c1ccncc1 (centres undefined)
A. 0% (inactive)

###

Procedure summary: Her2 expression decrease, cell viability multiplex – SKBR3 breast tumor cells, AlphaScreen, ATP viability, primary screen (AID 461);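 note: percent of carrier control wells set as 100% viability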
Measurement setup: SKBR3 Her2 protein level, 18-24 h, measured here: SKBR3 viability, ATP luminescence, at 10 µM
Readout label: viability (%)
Give the value, in units of %, as a plain number.

Solved cases below.
Molecule	viability (%)
CC12CCCCC1=[N+]([O-])CN2O (stereo unspecified)	102
CC(=NCc1ccc2c(c1)OCO2)c1c(O)n(C)c(=O)n(C)c1=O	94

Q. For the molecule shown here, "NCCc1ccc(O)cc1" , give the reported viability.
A. 112

Q. Follow-up entry: "O=C(CCCN1CCC2(CC1)C(=O)NCN2c1ccccc1)c1ccc(F)cc1"
A. 98

Q. Follow-up entry: "NC(=O)OCCSc1nnc(-c2cccc(C(N)=S)c2)o1"
A. 103

Q. Follow-up entry: COc1ccc(OC)c(C(O)C(C)N)c1 (stereo unspecified)
A. 104

Q. Follow-up entry: O=C1C2CCCN2C(c2ccc(Cl)c(Cl)c2)N1c1ccccn1 (stereo unspecified)
A. 128

Q. Follow-up entry: "Cc1ccc(CC2C(=O)N(C)C(=O)N(C)C2=O)s1"
A. 106

Q. Follow-up entry: "Nc1ccccc1C(=O)OC1CSC1"
A. 132

Q. Follow-up entry: "Cn1c(C(=O)N2CCC3(CC2)OCCO3)cc2c(=O)n(C)c3ccccc3c21"
A. 108

Q. Follow-up entry: "COC(=O)c1ccccc1-n1c(C)nc2ccccc2c1=O"
A. 90

Q. Follow-up entry: "O=c1[nH]c(=O)n(CCc2ccccc2)c(O)c1C=NCCN1CCNCC1"
A. 99

Q. Follow-up entry: "NC(=O)CSP(=O)(c1ccccc1)c1ccccc1"
A. 94

Q. Follow-up entry: "Cc1ccc(C)c(NC(=O)CSc2nnc([C@@H](N)Cc3c[nH]c4ccccc34)o2)c1"
A. 101

###

In this section, each of the molecules is paired with its reported inhibition.
Target or test system: Pantothenate synthetase (Mycobacterium tuberculosis (strain ATCC 25618 / H37Rv)) (UniProt P9WIL5)
Sequence (P9WIL5 whole entry, looked up): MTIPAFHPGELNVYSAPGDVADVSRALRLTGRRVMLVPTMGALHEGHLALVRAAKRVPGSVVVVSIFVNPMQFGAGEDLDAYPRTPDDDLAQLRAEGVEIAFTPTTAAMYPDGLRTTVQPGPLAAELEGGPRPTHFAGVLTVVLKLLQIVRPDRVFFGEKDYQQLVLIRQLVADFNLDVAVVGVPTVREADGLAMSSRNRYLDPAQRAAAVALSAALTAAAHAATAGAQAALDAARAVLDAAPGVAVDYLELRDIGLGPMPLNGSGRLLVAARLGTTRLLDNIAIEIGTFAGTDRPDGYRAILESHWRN
Procedure summary: Coupled enzyme confirmation of inhibitors against recombinant Mtb PanC (AID 375);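 note: 0% = full reaction with vehicle and 100% = no enzyme background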
Measurement setup: coupled enzyme assay; at 10 µM, stronger effect = higher value
Give the value, in units of %, as a plain number.

Molecule	inhibition / %
COc1ccc(N2CCN(CCNS(=O)(=O)c3cccc4nsnc34)CC2)cc1	2
COc1cccc(OC)c1C(=O)N1CCN(S(=O)(=O)c2ccccc2)CC1	0

Q. For the molecule shown here, "Cc1ccc(-n2ncc3c(=O)n(CC(=O)N4CCCc5ccccc54)cnc32)cc1C" , give the reported inhibition.
A. 4

Q. Follow-up entry: "COCCNC(=O)c1c(N)n(CCC2=CCCCC2)c2nc3ccccc3nc12"
A. 0

Q. Follow-up entry: "O=C(Nc1ccc2nn(-c3ccccc3)nc2c1)c1ccc(Br)o1"
A. 0

Q. Follow-up entry: "CC(C)CNS(=O)(=O)c1ccc(CCC(=O)NCc2ccco2)cc1"
A. 2

Q. Follow-up entry: "C(=N\n1cnnc1)/c1cccnc1"
A. 0

###

Procedure summary: RAM pathway blockade in budding yeast – dse1pr::URA3 reporter, 5-FOA selection, pilot screen (AID 869);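 note: 0% = DMSO wells with no growth and 100% = 10 µM 1-NA-PP1 with full growth; RAM network block rescues cells from 5-FOA so hits raise OD615 growth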
Measurement setup: S. cerevisiae dse1pr::URA3 5-FOA growth, OD615, 2 d, at 10 µM, stronger effect = higher value
Readout label: inhibition (%)
Give the value, in units of %, as a plain number.

Solved cases below.
Compound	Readout label	Recorded value
O=C1CC(N2CC=C(c3ccccc3)CC2)C(=O)N1c1ccc(F)cc1 (stereo unspecified)	inhibition	0.99
CN1CCN(c2nc3ccccc3c(=O)n2-c2ccccc2)CC1	inhibition	2.02
COc1ccc(C2C(C(=O)N3CCC4(CC3)OCCO4)CC(=O)N2c2ccc(OC)cc2)cc1 (stereo unspecified)	inhibition	1
O=C(Nc1ccccc1OC(=O)N1CCCCC1)N1CCCCC1	inhibition	0.8

Q. For the compound shown here, "O=C(c1ccc2c(c1)OCO2)N1CCC2(CC1)OCCO2" , give the reported inhibition.
A. 0.85

Q. Follow-up entry: "CC1=CC(=C2C(=O)NC(=O)NC2=O)C=C(C(F)(F)F)N1C(C)C"
A. 2.69
